VALUE_KIND: melting point

Consider the molecule O=C1CCc2ccc(OCCCCN3CCN(c4cccc5cc(Cl)ccc45)CC3)nc2N1 and give its recorded melting point.
215 to 216 °C

Give the value of melting point reported for the following: COc1ccc2c(c1)CCC1CCNC(=O)C(CCl)=C21 (stereo unspecified)
135 to 138 °C

Answer with the recorded melting point for the molecule listed here: CCCN(c1ccncc1)n1ccc2cc(OC(=O)NC(C)C)ccc21
131 to 133 °C

Please supply the value of reported melting point for the item CN(C)C(=O)c1cnn(-c2ccccc2)c1Br
79 to 81 °C

Quote melting point reported for NC(=O)c1nc(CCl)n(-c2ccc(Cl)cc2C(=O)c2ccccc2)n1 please.
128 to 130 °C

State its melting point for this molecule: CCCCCCCCCCCCc1ccc(S(=O)(=O)Nc2nnc(CCCCCN(C)c3ccc([N+](=O)[O-])c4nonc34)s2)cc1
102 to 104 °C

Annotate the molecule Cc1oc2ccc(O)cc2c(=O)c1Cc1cccc(NS(=O)(=O)C(F)(F)F)c1 with its measured melting point.
232 to 234 °C

State, in one line, measured melting point of O=c1c2cccnc2c(-c2cccc(Cl)c2)nn1-c1ccccc1
144 to 145 °C

Provide melting point value for the following molecule: CC1(C)SCc2ccccc2C1N=CNC#N (stereo unspecified)
164 to 166 °C

Report melting point, nothing else, for this molecule: COc1ccc(F)cc1C(C)(C)CC(O)(CN1CC(=O)Nc2ccccc21)C(F)(F)F (stereo unspecified)
69 to 71 °C

Supply recorded melting point for CC(C)c1cccc(C(C)C)c1OC(=O)c1ccccc1 here.
80 to 81 °C

This collection of values is drawn from a melting point compilation (Tetko et al.; mined from patent text by program, amines drawn as free bases though some values may be those of a salt).
